assay: Cell Viability - LYMP2-026 (AID 989); details: LYMP2-026 lymphoblastoid cell viability, qHTS; series mostly up to 92.2 µM;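 note: cells exposed to compound for 24 h at 37 °C; nearly all actives have a fitted effect of over 50% in size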
Inconclusive results are not listed. The source made the active and inactive calls. Calls come from the whole dose curve; as a rule, active = well fitted cell-killing curve with a large enough effect; inconclusive = small, poorly fitted or top-dose-only effect; inactive = flat fitted curve, though single readings scatter.
OBSERVED_PROPERTY: outcome

Recorded outcome, per entry:
Q: Identify the reported outcome for the following entry. OCl
Ans: inactive

Q: Give the reported outcome for this molecule. [O-][N+](=Nc1ccccc1)c1ccccc1
Ans: inactive

Q: // fetch outcome given entry O=P(O)(O)O
Ans: inactive

Q: Return the recorded outcome value; entry: CC1=CC(=O)NS(=O)(=O)O1
Ans: inactive

Switching to the query record.
Q: Identify outcome associated with the molecule CC[C@H]1OC(=O)[C@H](C)[C@@H](O[C@H]2C[C@@](C)(OC)[C@@H](O)[C@H](C)O2)[C@H](C)[C@@H](O[C@@H]2O[C@H](C)C[C@H](N(C)C)[C@H]2O)[C@](C)(O)C[C@@H](C)CN(C)[C@H](C)[C@@H](O)[C@]1(C)O
Ans: inactive
